Reported values of thermal stability score for individual entries
# Test system: HeLa Kyoto;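 further: synchronized HeLa Kyoto cells, proteins quantified by TMT10plex mass spectrometry, three biological replicates, mitosis taken 0.5 h after nocodazole release, G1/S directly after double thymidine block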
# Protocol Text: thermal stability score vs G1/S (z-score of summed log2 fold changes over temperatures); higher = more thermally stable than in G1/S
# Assay Setup: cell cycle stage: early G1 (4.5 h after nocodazole release)
Lab note: jot the number down without any unit.

MTSRSTARPNGQPQASKICQFKLVLLGESAVGKSSLVLRFVKGQFHEYQESTIGAAFLTQSVCLDDTTVKFEIWDTAGQERYHSLAPMYYRGAQAAIVVYDITNQETFARAKTWVKELQRQASPSIVIALAGNKADLANKRMVEYEEAQAYADDNSLLFMETSAKTAMNVNDLFLAIAKKLPKSEPQNLGGAAGRSRGVDLHEQSQQNKSQCCSN [RAB5B] | -0.307
MSCINLPTVLPGSPSKTRGQIQVILGPMFSGKSTELMRRVRRFQIAQYKCLVIKYAKDTRYSSSFCTHDRNTMEALPACLLRDVAQEALGVAVIGIDEGQFFPDIVEFCEAMANAGKTVIVAALDGTFQRKPFGAILNLVPLAESVVKLTAVCMECFREAAYTKRLGTEKEVEVIGGADKYHSVCRLCYFKKASGQPAGPDNKENCPVPGKPGEAVAARKLFAPQQILQCSPAN [TK1] | -4.01
APOBEC3B | 0.584
MRLVILDNYDLASEWAAKYICNRIIQFKPGQDRYFTLGLPTGSTPLGCYKKLIEYHKNGHLSFKYVKTFNMDEYVGLPRNHPESYHSYMWNNFFKHIDIDPNNAHILDGNAADLQAECDAFENKIKEAGGIDLFVGGIGPDGHIAFNEPGSSLVSRTRLKTLAMDTILANAKYFDGDLSKVPTMALTVGVGTVMDAREVMILITGAHKAFALYKAIEEGVNHMWTVSAFQQHPRTIFVCDEDATLELRVKTVKYFKGLMHVHNKLVDPLFSMKDGN [GNPDA2] | -0.549
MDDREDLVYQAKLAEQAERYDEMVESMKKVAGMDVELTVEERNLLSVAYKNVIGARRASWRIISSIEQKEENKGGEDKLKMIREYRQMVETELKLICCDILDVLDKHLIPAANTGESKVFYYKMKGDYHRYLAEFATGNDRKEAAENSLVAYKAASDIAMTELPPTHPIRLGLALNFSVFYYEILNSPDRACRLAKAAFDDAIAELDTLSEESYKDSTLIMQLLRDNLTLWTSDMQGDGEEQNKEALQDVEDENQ [YWHAE] | -1.18

I have this substance here, MASTSRLDALPRVTCPNHPDAILVEDYRAGDMICPECGLVVGDRVIDVGSEWRTFSNDKATKDPSRVGDSQNPLLSDGDLSTMIGKGTGAASFDEFGNSKYQNRRTMSSSDRAMMNAFKEITTMADRINLPRNIVDRTNNLFKQVYEQKSLKGRANDAIASACLYIACRQEGVPRTFKEICAVSRISKKEIGRCFKLILKALETSVDLITTGDFMSRFCSNLCLPKQVQMAATHIARKAVELDLVPGRSPISVAAAAIYMASQASAEKRTQKEIGDIAGVADVTIRQSYRLIYPRAPDLFPTDFKFDTPVDKLPQL [GTF2B] , and I need its recorded thermal stability score. 2.28

May I ask what thermal stability score has been recorded for MNPSMKQKQEEIKENIKNSSVPRRTLKMIQPSASGSLVGRENELSAGLSKRKHRNDHLTSTTSSPGVIVPESSENKNLGGVTQESFDLMIKENPSSQYWKEVAEKRRKALYEALKENEKLHKEIEQKDNEIARLKKENKELAEVAEHVQYMAELIERLNGEPLDNFESLDNQEFDSEEETVEDSLVEDSEIGTCAEGTVSSSTDAKPCI [GMNN] ? -7.44

# credit: the supplement of paper PMC5998384
